B1: ANKRD44 (parent)
chain: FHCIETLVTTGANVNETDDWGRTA

Variants of: B1
ASSAY NAME: protein stability index of a GFP-peptide fusion (GPS, HEK-293T) (PSI 1-6); higher = more stable;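 also: lentivirally expressed fusions sorted by FACS into six bins by GFP to DsRed ratio, PSI derived from sequencing read proportions per bin multiplied by bin number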
MEASUREMENT PARAMETERS: c terminus: a fixed tail appended
# protein stability index per entry
VALUE TYPE: protein stability index

SEQUENCE INPUT | ENDPOINT VALUE
FHCIETLVTTGYNVNETDDWGRTA [A12Y] | 1.88
FNCIETLVTTGANVNETDDWGRTA [H2N] | 3.37
FHCIETLVTTGANVNETDDWFRTA [G21F] | 1.87
FHCIETLVTTGANVNWTDDWGRTA [E16W] | 2.43
FHCIETLVTTGINVNETDDWGRTA [A12I] | 1.7
FHCIETLVTTGANVNETDDYGRTA [W20Y] | 2.51
FHCIETLATTGANVNETDDWGRTA [V8A] | 2.05
FHCIETLVTTGANNNETDDWGRTA [V14N] | 3
FHCIETLVTTGADVNETDDWGRTA [N13D] | 2.51
FHCIETLNTTGANVNETDDWGRTA [V8N] | 2.86
FHCIETPVTTGANVNETDDWGRTA [L7P] | 3.04
